Origin of measurements: patent US6362166B1

# experimentalSystem: Recombinant Rhinovirus 3C protease (RVP) serotype-14 (Human rhinovirus 14)
# Construct: Recombinant Rhinovirus 3C proteases from serotypes 14, 16, 2 or 89; made in house
# Sequence (P03303 1538-1719): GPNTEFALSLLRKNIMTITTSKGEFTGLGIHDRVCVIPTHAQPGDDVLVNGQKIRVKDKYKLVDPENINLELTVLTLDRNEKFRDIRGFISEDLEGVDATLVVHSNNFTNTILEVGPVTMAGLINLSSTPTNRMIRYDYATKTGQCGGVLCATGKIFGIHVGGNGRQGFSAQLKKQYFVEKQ
# measurementProtocol: Inhibition of Rhinovirus Protease (fluorescence resonance energy transfer assay), serotype 14
# Format: biochemical, human rhinovirus (HRV)
# protocolConditions: RVP serotype-14; 10 minute preincubation, substrate start; read-out: INHIB (Ki)
pKi: −log10 of the molar value.

{"molecule": "CCOC(=O)/C(C)=C/[C@H](CCC(N)=O)NC(=O)[C@H](Cc1ccccc1)NC(=O)[C@H](CC(C)C)NC(=O)OCc1ccccc1", "experimentalSystem": "Recombinant Rhinovirus 3C protease (RVP) serotype-14 (Human rhinovirus 14)", "pKi": 4.59}
{"molecule": "CC(C)C[C@H](NC(=O)OCc1ccccc1)C(=O)N[C@@H](Cc1ccccc1)C(=O)N[C@H](/C=C/C(=O)N(C)c1ccccc1)CCC(N)=O", "experimentalSystem": "Recombinant Rhinovirus 3C protease (RVP) serotype-14 (Human rhinovirus 14)", "pKi": 5.30}
{"molecule": "CC(C)C[C@H](NC(=O)OCc1ccccc1)C(=O)N[C@@H](Cc1ccccc1)C(=O)N[C@H](/C=C/C(=O)Nc1ccccc1)CCC(N)=O", "experimentalSystem": "Recombinant Rhinovirus 3C protease (RVP) serotype-14 (Human rhinovirus 14)", "pKi": 5.70}
{"molecule": "CCOC(=O)/C=C/[C@H](CCC(N)=O)NC(=O)[C@H](Cc1ccccc1)NC(=O)OCc1ccccc1 [Compound 30, Ethyl-3-(CBZ-L-Phe-L-Gln)-E-Propenoate]", "experimentalSystem": "Recombinant Rhinovirus 3C protease (RVP) serotype-14 (Human rhinovirus 14)", "pKi": 3.43}
{"molecule": "CCOC(=O)/C=C/[C@H](CCC(N)=O)NC(=O)[C@H](Cc1ccc(F)cc1)NC(=O)[C@@H](NC(=O)SC1CCCC1)C(C)(C)C", "experimentalSystem": "Recombinant Rhinovirus 3C protease (RVP) serotype-14 (Human rhinovirus 14)", "pKi": 6.32}
{"molecule": "CC(C)C[C@H](NC(=O)OCc1ccccc1)C(=O)N[C@@H](Cc1ccccc1)C(=O)N[C@H](/C=C/c1ccccn1)CCC(N)=O", "experimentalSystem": "Recombinant Rhinovirus 3C protease (RVP) serotype-14 (Human rhinovirus 14)", "pKi": 3.75}
{"molecule": "CC(C)C[C@H](NC(=O)OCc1ccccc1)C(=O)N[C@@H](Cc1ccccc1)C(=O)N[C@H](/C=C/C(=O)OCC1CCCC1)CCC(N)=O", "experimentalSystem": "Recombinant Rhinovirus 3C protease (RVP) serotype-14 (Human rhinovirus 14)", "pKi": 4.46}
{"molecule": "CCOC(=O)/C=C/[C@H](CCC(N)=O)NC(=O)[C@H](Cc1ccccc1)NC(=O)[C@H](CC(=O)N(C)C)NC(=O)OCc1ccccc1", "experimentalSystem": "Recombinant Rhinovirus 3C protease (RVP) serotype-14 (Human rhinovirus 14)", "pKi": 4.77}
{"molecule": "COC(=O)/C=C/[C@H](CCC(N)=O)NC(=O)[C@H](Cc1ccccc1)NC(=O)[C@H](CC(C)C)NC(=O)OCc1ccccc1", "experimentalSystem": "Recombinant Rhinovirus 3C protease (RVP) serotype-14 (Human rhinovirus 14)", "pKi": 4.55}
{"molecule": "CCOC(=O)/C=C/[C@H](CCC(N)=O)NC(=O)[C@H](Cc1cccc(F)c1)NC(=O)c1cc2c(OC)cccc2[nH]1", "experimentalSystem": "Recombinant Rhinovirus 3C protease (RVP) serotype-14 (Human rhinovirus 14)", "pKi": 4.24}
{"molecule": "CC(C)C[C@H](NC(=O)OCc1ccccc1)C(=O)N[C@@H](Cc1ccccc1)C(=O)N[C@H](/C=C/C(=O)OC1CCCC1)CCC(N)=O", "experimentalSystem": "Recombinant Rhinovirus 3C protease (RVP) serotype-14 (Human rhinovirus 14)", "pKi": 4.82}
{"molecule": "CCOC(=O)C=CC(CCC(N)=O)NC(=O)C(Cc1ccccc1)NC(=O)C(NC(=O)SC1CCCC1)C(C)(C)[S+](C)[O-] (mixture of isomers)", "experimentalSystem": "Recombinant Rhinovirus 3C protease (RVP) serotype-14 (Human rhinovirus 14)", "pKi": 6.44}
